- Measurement Target: human GRP receptor (human, UniProt P30550 1-384)
- Sequence (P30550 whole entry): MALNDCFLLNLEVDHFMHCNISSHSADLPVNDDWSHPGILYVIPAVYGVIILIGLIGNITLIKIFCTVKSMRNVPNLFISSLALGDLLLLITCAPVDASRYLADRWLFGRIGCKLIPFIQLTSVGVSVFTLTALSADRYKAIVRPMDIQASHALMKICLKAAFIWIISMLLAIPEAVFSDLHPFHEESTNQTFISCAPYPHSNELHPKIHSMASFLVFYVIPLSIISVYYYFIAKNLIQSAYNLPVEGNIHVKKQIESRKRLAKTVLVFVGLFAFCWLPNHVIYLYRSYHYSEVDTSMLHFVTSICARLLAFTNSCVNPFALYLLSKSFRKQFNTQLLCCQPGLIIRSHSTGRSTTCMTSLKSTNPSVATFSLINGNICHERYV
- Protocol Summary: cell-based or functional assay
Starred links: 1 amine or outer side, 2 acyl side, 3 side chain; linkers in the order of their positions; H or OH if unused. Non-standard residues stand in square brackets, D forms with d. *: point of attachment. Trp(6-F) = N[C@@H](Cc1c[nH]c2cc(F)ccc12)C(=O)O; Trp(7-Me) = Cc1cccc2c(C[C@H](N)C(=O)O)c[nH]c12; C20 diacid = O=C(O)CCCCCCCCCCCCCCCCCCC(=O)*; d(γGlu) = O=C(O)[C@@H](CCC(=O)[*:2])N[*:1]; C18 diacid = O=C(O)CCCCCCCCCCCCCCCCC(=O)*; γGlu = O=C(O)[C@H](CCC(=O)[*:2])N[*:1]; NMeH = CN[C@@H](Cc1c[nH]cn1)C(=O)O; 3Pal = N[C@@H](Cc1cccnc1)C(=O)O; Nle = CCCC[C@H](N)C(=O)O; AEEA = NCCOCCOCC(=O)O; Sar = CNCC(=O)O
Outcome Measure: hIP1 GRPR EC50 (nM)
Field: numeric (nM). Do not append units.

Example entries and their recorded answers appear below.
binder="{C18 diacid}-[d(γGlu)][AEEA][AEEA]GNHWAV[dA][3Pal]L[Nle]-NH2 (SMILES CCCC[C@H](NC(=O)[C@H](CC(C)C)NC(=O)[C@H](Cc1cccnc1)NC(=O)[C@@H](C)NC(=O)[C@@H](NC(=O)[C@H](C)NC(=O)[C@H](Cc1c[nH]c2ccccc12)NC(=O)[C@H](Cc1c[nH]cn1)NC(=O)[C@H](CC(N)=O)NC(=O)CNC(=O)COCCOCCNC(=O)COCCOCCNC(=O)CC[C@@H](NC(=O)CCCCCCCCCCCCCCCCC(=O)O)C(=O)O)C(C)C)C(N)=O) [Peptide 66]" outcome_measure="hIP1 GRPR EC50" u=nM numeric_value=308
binder="{C20 diacid}-[γGlu][γGlu][AEEA][AEEA]GQH[Trp(7-Me)]AV[BABA][NMeH]L[Nle]-NH2 [Peptide 270]" outcome_measure="hIP1 GRPR EC50" u=nM numeric_value=3.8
binder="{C20 diacid}-[γGlu][AEEA][AEEA]GNHWAV[dA]HL[Nle][Sar]-NH2 (SMILES CCCC[C@H](NC(=O)[C@H](CC(C)C)NC(=O)[C@H](Cc1c[nH]cn1)NC(=O)[C@@H](C)NC(=O)[C@@H](NC(=O)[C@H](C)NC(=O)[C@H](Cc1c[nH]c2ccccc12)NC(=O)[C@H](Cc1c[nH]cn1)NC(=O)[C@H](CC(N)=O)NC(=O)CNC(=O)COCCOCCNC(=O)COCCOCCNC(=O)CC[C@H](NC(=O)CCCCCCCCCCCCCCCCCCC(=O)O)C(=O)O)C(C)C)C(=O)N(C)CC(N)=O) [Peptide 131]" outcome_measure="hIP1 GRPR EC50" u=nM numeric_value=54.2

Please find the next binder below.
## Input Form field: reported hIP1 GRPR EC50 of {C18 diacid}-[γGlu][AEEA][AEEA][AEEA][AEEA]GNH[Trp(6-F)]AV[dA]HL[Nle][Sar]-NH2 (SMILES CCCC[C@H](NC(=O)[C@H](CC(C)C)NC(=O)[C@H](Cc1c[nH]cn1)NC(=O)[C@@H](C)NC(=O)[C@@H](NC(=O)[C@H](C)NC(=O)[C@H](Cc1c[nH]c2cc(F)ccc12)NC(=O)[C@H](Cc1c[nH]cn1)NC(=O)[C@H](CC(N)=O)NC(=O)CNC(=O)COCCOCCNC(=O)COCCOCCNC(=O)COCCOCCNC(=O)COCCOCCNC(=O)CC[C@H](NC(=O)CCCCCCCCCCCCCCCCC(=O)O)C(=O)O)C(C)C)C(=O)N(C)CC(N)=O) [Peptide 133]
## Output 600
